Test system: GR-GFP chimera
Measurement notes: Nuclear Transfer Induction assay (NTI), diurethane ligands, CV-1 cells
Type: cell-based
Condition: ligand 5.10-9M, 4 hr
Measurement kind: C < N, percentage of cells (%)
Give just the number in %; leave the unit off.

Solved entries:
Cc1oc2c(C)c3oc(=O)cc(C)c3cc2c1CNC(=O)OCCCCCCNC(=O)OCC(=O)[C@@]1(O)[C@H](C)CC2C3CCC4=CC(=O)C=CC4(C)[C@@]3(F)C(O)CC21C (stereo partly shown)    38.3
C[C@@H]1C[C@H]2[C@@H]3CCC4=CC(=O)C=C[C@]4(C)[C@@]3(F)[C@@H](O)C[C@]2(C)[C@@]1(O)C(=O)CO [DEX, Dexamethasone, reference compound]    42.1
CC1CC2C3CCC4=CC(=O)C=CC4(C)C3(F)C(O)CC2(C)C1(O)C(=O)COC(=O)NCCOC(=O)NCCCNCCCCNCCCN (stereo not shown)    0

Now examine the next entry.
### Prompt Give the measured C < N, percentage of cells for Cc1oc2c(C)c3oc(=O)cc(C)c3cc2c1CNC(=O)OCCCCCCCCCCCNC(=O)OCC(=O)[C@@]1(O)[C@H](C)CC2C3CCC4=CC(=O)C=CC4(C)[C@@]3(F)C(O)CC21C (stereo partly shown)
### Response 3.6

====

Test system: GR-GFP chimera
Measurement notes: Nuclear Transfer Induction assay (NTI), monourethane ligands, HeLa cells
Assay type: cell-based
Condition: ligand 1.10-7M, 1 hr
Consider the following compounds and their measured C >> N, percentage of cells readings.

Reference set, count: 5
COC(=O)CCCCCCCCCCNC(=O)OCC(=O)[C@@]1(O)[C@H](C)CC2C3CCC4=CC(=O)C=CC4(C)[C@@]3(F)C(O)CC21C (stereo partly shown)    0%
COC(=O)CCNC(=O)OCC(=O)[C@@]1(O)[C@H](C)CC2C3CCC4=CC(=O)C=CC4(C)[C@@]3(F)C(O)CC21C (stereo partly shown)    0%
COC(=O)CCCCCCCCCCNC(=O)OCC(=O)[C@@]1(O)CCC2C3CCC4=CC(=O)CCC4(C)C3C(O)CC21C (stereo partly shown)    5%
Cc1oc2c(C)c3oc(=O)cc(C)c3cc2c1CNC(=O)CCNC(=O)OCC(=O)[C@@]1(O)[C@H](C)CC2C3CCC4=CC(=O)C=CC4(C)[C@@]3(F)C(O)CC21C (stereo partly shown)    20%
COC(=O)CCNC(=O)OCC(=O)[C@@]1(O)CCC2C3CCC4=CC(=O)CCC4(C)C3C(O)CC21C (stereo partly shown)    0%

### Prompt Give the observed C >> N, percentage of cells of CC[n+]1c(-c2ccccc2)c2cc(NC(=O)CCNC(=O)OCC(=O)[C@@]3(O)CCC4C5CCC6=CC(=O)CCC6(C)C5C(O)CC43C)ccc2c2ccc(N)cc21 (stereo partly shown) for GR-GFP chimera.
### Response 0%

### Prompt Fill in: C >> N, percentage of cells on GR-GFP chimera, entry Cc1oc2c(C)c3oc(=O)cc(C)c3cc2c1CNC(=O)CCCCCCCCCCNC(=O)OCC(=O)[C@@]1(O)CCC2C3CCC4=CC(=O)CCC4(C)C3C(O)CC21C (stereo partly shown)
### Response 5%

### Prompt // fetch C >> N, percentage of cells for Cc1oc2c(C)c3oc(=O)cc(C)c3cc2c1CNC(=O)CCNC(=O)OCC(=O)[C@@]1(O)CCC2C3CCC4=CC(=O)CCC4(C)C3C(O)CC21C (stereo partly shown) ; system: GR-GFP chimera
### Response 0%

### Prompt Return reported C >> N, percentage of cells for target or system GR-GFP chimera, item C[C@@H]1C[C@H]2[C@@H]3CCC4=CC(=O)C=C[C@]4(C)[C@@]3(F)[C@@H](O)C[C@]2(C)[C@@]1(O)C(=O)CO [DEX, Dexamethasone, reference compound] .
### Response 0%

### Prompt Report C >> N, percentage of cells from GR-GFP chimera testing of CC12CCC(=O)C=C1CCC1C2C(O)CC2(C)C1CC[C@]2(O)C(=O)COC(=O)NCCC(=O)O (stereo partly shown)
### Response 0%
